Entries with their measured MIC, system Streptococcus Group D X66:
Your answer should be a plain number; it is taken to be in µg/mL.

CCC1OC(=O)CC(O)C(C)C(OC2OC(C)C(OC3CC(C)(O)C(O)C(C)O3)C(N(C)C)C2OC(C)=O)C(CC=O)CC(C)C(=O)C=CC(C)=CC1COC(=O)OC (stereo not shown): 0.5
CCC1OC(=O)CC(O)C(C)C(OC2OC(C)C(OC3CC(C)(O)C(O)C(C)O3)C(N(C)C)C2O)C(CC=O)CC(C)C(=O)C=CC(C)=CC1COC(=O)NCCCCCCCCN (stereo not shown): 4

Exercise: I have this molecule here, CCC1OC(=O)CC(O)C(C)C(OC2OC(C)C(OC3CC(C)(O)C(O)C(C)O3)C(N(C)C)C2O)C(CC=O)CC(C)C(=O)C=CC(C)=CC1COC(=O)Cc1ccccc1 (stereo not shown) , and I need its recorded MIC.
Solution: 0.5

Exercise: I have this molecule here, CCC1OC(=O)CC(O)C(C)C(OC2OC(C)C(OC3CC(C)(O)C(O)C(C)O3)C(N(C)C)C2OC(C)=O)C(CC=O)CC(C)C(=O)C=CC(C)=CC1COC(=O)Cc1ccc([N+](=O)[O-])cc1 (stereo not shown) , and I need its recorded MIC.
Solution: 0.25

###

Test system: Staphylococcus aureus S13E
measurement_protocol: standard agar-dilution assay (MIC)
Assay type: cell-based
conditions_used: unit assumed
assay_readout: MIC (µg/mL)
Your answer should be a plain number; it is taken to be in µg/mL.

Known results for molecules:
CCC1OC(=O)CC(O)C(C)C(OC2OC(C)C(OC3CC(C)(O)C(O)C(C)O3)C(N(C)C)C2O)C(CC=O)CC(C)C(=O)C=CC(C)=CC1COC(=O)Cc1ccccc1 (stereo not drawn): 0.25
CCC1OC(=O)CC(O)C(C)C(OC2OC(C)C(OC3CC(C)(O)C(O)C(C)O3)C(N(C)C)C2OC(C)=O)C(CC=O)CC(C)C(=O)C=CC(C)=CC1COC(=O)n1ccnc1 (stereo not drawn): 1

From here, focus on the item given below.
Exercise: I have this molecule here, CCC1OC(=O)CC(O)C(C)C(OC2OC(C)C(OC3CC(C)(O)C(O)C(C)O3)C(N(C)C)C2OC(C)=O)C(CC=O)CC(C)C(=O)C=CC(C)=CC1COC(=O)CCc1ccccc1 (stereo not drawn) , and I need its recorded MIC.
Solution: 0.5

###

Test system: Streptococcus sp. 80
Each record here notes measured MIC.

Known results for compounds:
CCC1OC(=O)CC(O)C(C)C(OC2OC(C)C(OC3CC(C)(O)C(O)C(C)O3)C(N(C)C)C2OC(C)=O)C(CC=O)CC(C)C(=O)C=CC(C)=CC1COC(=O)n1ccnc1 (stereo not drawn): 0.78 µg/mL
CCC(=O)OCC1C=C(C)C=CC(=O)C(C)CC(CC=O)C(OC2OC(C)C(OC3CC(C)(O)C(O)C(C)O3)C(N(C)C)C2O)C(C)C(O)CC(=O)OC1CC (stereo not drawn): 0.39 µg/mL

From here, focus on the item given below.
Exercise: Lab note: need MIC for CCC1OC(=O)CC(O)C(C)C(OC2OC(C)C(OC3CC(C)(O)C(O)C(C)O3)C(N(C)C)C2OC(=O)Cc2ccccc2)C(CC=O)CC(C)C(=O)C=CC(C)=CC1COC(=O)Cc1ccccc1 (stereo not drawn) on Streptococcus sp. 80, anyone have it?
Solution: 0.78 µg/mL
